- Tested on: MCF-7 cells
- testProtocol: Cellular uptake of metformin sulfonamides in MCF-7 cells (HPLC)
- Format: in vitro ADME, human
- testContext: 800 μmol/L, 10 min incubation, 37 °C
measuredEndpoint: uptake into MCF-7 cells (nmol/min/mg protein)

CN(C)C(=N)N=C(N)NS(=O)(=O)c1ccc(Cl)cc1 = 0.84
CN(C)C(=N)N=C(N)NS(=O)(=O)c1ccccc1Cl = 1.79

(a) CN(C)C(=N)N=C(N)NS(=O)(=O)c1ccccc1F
(b) CN(C)C(=N)N=C(N)NS(=O)(=O)c1ccc(Br)cc1
(c) CN(C)C(=N)N=C(N)NS(=O)(=O)c1ccc(F)cc1
(d) CN(C)C(=N)N=C(N)NS(=O)(=O)c1cccc(Cl)c1
Query: Provide the items ranked by increasing uptake into MCF-7 cells. Please express your ranking as an ordered list of the labels.
Response: c, b, a, d

###

- Test system: OCTs
- testProtocol: Inhibition of [14C]choline uptake in MDA-MB-231 cells (competitive inhibition assay)
- Assay type: cell-based, human
- testContext: mean ± SD (n = 3)
pIC50: −log10 of the molar value.
measuredEndpoint: pIC50

Answered cases to consult:
CN(C)C(=N)N=C(N)NS(=O)(=O)c1ccc(Br)cc1 = 2.60
CN(C)C(=N)N=C(N)NS(=O)(=O)c1ccc(Cl)cc1 = 2.43
CN(C)C(=N)N=C(N)NS(=O)(=O)c1ccc(F)cc1 = 2.86

(a) CN(C)C(=N)N=C(N)NS(=O)(=O)c1ccccc1Cl
(b) CN(C)C(=N)N=C(N)NS(=O)(=O)c1cccc(Cl)c1
Query: I'm curious whether a or b has the smaller pIC50 number. Which is it? Write the label of whichever entry you select.
Response: b

###

- Tested on: MCF-7 cells
- testProtocol: Uptake in the presence of OCT and MATE inhibitors, MCF-7 cells
- Format: in vitro ADME, human
- testContext: compound and inhibitor 400 and 800 µmol/L, 10 min, 37 °C
measuredEndpoint: uptake in the presence of cimetidine, MCF-7

CN(C)C(=N)N=C(N)NS(=O)(=O)c1ccccc1Br = did not change
CN(C)C(=N)N=C(N)NS(=O)(=O)c1ccc(Cl)cc1 = did not change

###

- Tested on: OCTs
- testProtocol: Inhibition of [14C]choline uptake in MDA-MB-231 cells (competitive inhibition assay)
- Type: cell-based, human
- testContext: mean ± SD (n = 3)
pIC50: −log10 of the molar value.
measuredEndpoint: pIC50

Answered cases to consult:
CN(C)C(=N)N=C(N)NS(=O)(=O)c1ccccc1Br [Compound 4] = 3.04
CN(C)C(=N)N=C(N)NS(=O)(=O)c1cccc(Br)c1 [Compound 5] = 3.23

(1) CN(C)C(=N)N=C(N)NS(=O)(=O)c1ccccc1F [Compound 7]
(2) CN(C)C(=N)N=C(N)NS(=O)(=O)c1cccc(F)c1 [Compound 8]
Query: Between 1 and 2 , which one shows the larger pIC50 value? Write the label of whichever entry you select.
Response: 2
(2: 2.64, 1: 2.29)

###

- Test system: MDA-MB-231 cells
- testProtocol: Uptake in the presence of OCT and MATE inhibitors, MDA-MB-231 cells
- Type: in vitro ADME, human
- testContext: summary from uptake with inhibitors
measuredEndpoint: interactions with OCT, PMAT and MATE1 transporters, MDA-MB-231

Answered cases to consult:
CN(C)C(=N)N=C(N)NS(=O)(=O)c1ccccc1F = OCT1, OCT3
CN(C)C(=N)N=C(N)NS(=O)(=O)c1ccc(F)cc1 = OCT1, OCT3
CN(C)C(=N)N=C(N)NS(=O)(=O)c1cccc(F)c1 = OCT1, OCT3
CN(C)C(=N)N=C(N)NS(=O)(=O)c1cccc(Cl)c1 = OCT1, OCT3

Then there is this compound:
Summary for this compound, CN(C)C(=N)N=C(N)NS(=O)(=O)c1cccc(Br)c1 : interactions with OCT, PMAT and MATE1 transporters, MDA-MB-231 is OCT1, OCT3
